All values here come from IntAct's records for PubMed 32017888.

B1: Ras-related protein Rab-8A (Homo sapiens), P61006 (parent)
chain: MAKTYDYLFKLLLIGDSGVGKTCVLFRFSEDAFNSTFISTIGIDFKIRTIELDGKRIKLQIWDTAGQERFRTITTAYYRGAMGIMLVYDITNEKSFDNIRNWIRNIEEHASADVEKMILGNKCDVNDKRQVSKERGEKLALDYGIKFMETSAKANINVENAFFTLARDIKAKMDKKLEGNSPQGSNQGVKITPDQQKRSSFFRCVLL
partner: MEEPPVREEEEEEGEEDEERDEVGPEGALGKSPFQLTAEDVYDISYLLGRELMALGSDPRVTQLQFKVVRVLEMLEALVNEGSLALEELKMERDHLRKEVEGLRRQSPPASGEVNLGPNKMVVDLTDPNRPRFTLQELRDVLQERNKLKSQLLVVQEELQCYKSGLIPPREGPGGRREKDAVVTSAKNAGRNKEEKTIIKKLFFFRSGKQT

# Variants of: B1
# condition-set: with ripl2_human RILPL2, Q969X0
test-readout: effect of a mutation on the interaction

K58A    with no effect
T4A    with no effect
